// MFI lookup, one value per entry
# measurement-target: human interleukin 1 receptor accessory protein, membrane-bound form on cells (human) (UniProt Q9NPH3)
# Sequence (Q9NPH3 21-570): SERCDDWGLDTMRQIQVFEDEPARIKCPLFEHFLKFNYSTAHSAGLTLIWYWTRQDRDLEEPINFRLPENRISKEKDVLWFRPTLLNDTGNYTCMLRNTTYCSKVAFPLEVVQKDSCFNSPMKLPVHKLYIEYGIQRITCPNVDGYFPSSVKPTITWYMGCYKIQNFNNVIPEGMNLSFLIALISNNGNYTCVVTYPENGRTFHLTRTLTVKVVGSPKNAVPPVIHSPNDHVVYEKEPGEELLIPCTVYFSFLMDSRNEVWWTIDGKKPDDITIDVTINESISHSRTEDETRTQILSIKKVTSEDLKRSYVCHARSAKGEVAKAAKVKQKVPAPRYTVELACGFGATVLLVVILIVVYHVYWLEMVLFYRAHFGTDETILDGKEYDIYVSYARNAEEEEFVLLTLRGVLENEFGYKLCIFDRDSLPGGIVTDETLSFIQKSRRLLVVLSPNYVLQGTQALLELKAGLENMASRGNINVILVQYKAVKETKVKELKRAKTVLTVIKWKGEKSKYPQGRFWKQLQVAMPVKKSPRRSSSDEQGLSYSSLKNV
# measurement-protocol: FACS on EOL-1 cells, FITC; antibody concentration not given
Lab note: record just the number, no unit beside it.

binder	obs-value
h54.9D7 HC2 / h54.9D7 LC2 (antibody, V domains shown) VH: QVQLVQSGAEVKKPGASVKVSCKASGYIFITYWMNWVRQAPGQGLEWVGQIFPASGTTYYAQKFQGRVTMTVDTSTSTVYMELSSLRSEDTAVYYCARTDFYRYDGGYALDYWGQGTLVTVSS VL: DIQLTQSPSSLSASVGDRATITCRASQSVSTSGYSSMHWYQQKPGKAPKLLIYYASDLESGVPSRFSGSGSGTDFTLTISSVQPEDFATYYCHHSWGIPMYTFGQGTKLEIKR	5.69
h54.9D7 HC2 / h54.9D7 LC1 (antibody, V domains shown) VH: QVQLVQSGAEVKKPGASVKVSCKASGYIFITYWMNWVRQAPGQGLEWVGQIFPASGTTYYAQKFQGRVTMTVDTSTSTVYMELSSLRSEDTAVYYCARTDFYRYDGGYALDYWGQGTLVTVSS VL: DIQMTQSPSSLSASVGDRVTITCRASQSVSTSGYSSMHWYQQKPGKAPKLLIYYASDLESGVPSRFSGSGSGTDFTLTISSLQPEDFATYYCHHSWGIPMYTFGQGTKLEIKR	5.25
H54.9D7 HC1 / H54.9D7 LC1 (antibody, V domains shown) VH: QVQLVQSGAEVKKPGASVKVSCKASGYIFITYWMNWVRQAPGQGLEWMGQIFPASGTTYYAQKFQGRVTMTRDTSTSTVYMELSSLRSEDTAVYYCARTDFYRYDGGYALDYWGQGTLVTVSS VL: DIQMTQSPSSLSASVGDRVTITCRASQSVSTSGYSSMHWYQQKPGKAPKLLIYYASDLESGVPSRFSGSGSGTDFTLTISSLQPEDFATYYCHHSWGIPMYTFGQGTKLEIKR	4.9
Chi54.9D7 HC#1 / h54.9D7 LC2 (antibody, V domains shown) VH: HVQLQQSGPELVRPGASVKLSCKASGYIFITYWMNWVKQRPGQGLEWVGQIFPASGTTYYNELFEGKATLTVDTSSNTAYMHLTSLTSEDSAVYYCARTDFYRYDGGYALDYWGQGTSLTVSS VL: DIQLTQSPSSLSASVGDRATITCRASQSVSTSGYSSMHWYQQKPGKAPKLLIYYASDLESGVPSRFSGSGSGTDFTLTISSVQPEDFATYYCHHSWGIPMYTFGQGTKLEIKR	7.8
Chi54.9D7 HC#1 / h54.9D7 LC1 (antibody, V domains shown) VH: HVQLQQSGPELVRPGASVKLSCKASGYIFITYWMNWVKQRPGQGLEWVGQIFPASGTTYYNELFEGKATLTVDTSSNTAYMHLTSLTSEDSAVYYCARTDFYRYDGGYALDYWGQGTSLTVSS VL: DIQMTQSPSSLSASVGDRVTITCRASQSVSTSGYSSMHWYQQKPGKAPKLLIYYASDLESGVPSRFSGSGSGTDFTLTISSLQPEDFATYYCHHSWGIPMYTFGQGTKLEIKR	7.96

Data point: h54.9D7 HC3 / h54.9D7 LC2 (antibody, V domains shown) VH: QVQLVQSGAEVKKPGASVKLSCKASGYIFITYWMNWVRQAPGQGLEWVGQIFPASGTTYYAQKFQGRATLTVDTSTSTAYMELSSLRSEDTAVYYCARTDFYRYDGGYALDYWGQGTLLTVSS VL: DIQLTQSPSSLSASVGDRATITCRASQSVSTSGYSSMHWYQQKPGKAPKLLIYYASDLESGVPSRFSGSGSGTDFTLTISSVQPEDFATYYCHHSWGIPMYTFGQGTKLEIKR ; MFI = 5.49

Data point: h54.9D7 HC1 / h54.9D7 LC2 (antibody, V domains shown) VH: QVQLVQSGAEVKKPGASVKVSCKASGYIFITYWMNWVRQAPGQGLEWMGQIFPASGTTYYAQKFQGRVTMTRDTSTSTVYMELSSLRSEDTAVYYCARTDFYRYDGGYALDYWGQGTLVTVSS VL: DIQLTQSPSSLSASVGDRATITCRASQSVSTSGYSSMHWYQQKPGKAPKLLIYYASDLESGVPSRFSGSGSGTDFTLTISSVQPEDFATYYCHHSWGIPMYTFGQGTKLEIKR ; MFI = 5.14

Data point: H54.9D7 HC3 / H54.9D7 LC1 (antibody, V domains shown) VH: QVQLVQSGAEVKKPGASVKLSCKASGYIFITYWMNWVRQAPGQGLEWVGQIFPASGTTYYAQKFQGRATLTVDTSTSTAYMELSSLRSEDTAVYYCARTDFYRYDGGYALDYWGQGTLLTVSS VL: DIQMTQSPSSLSASVGDRVTITCRASQSVSTSGYSSMHWYQQKPGKAPKLLIYYASDLESGVPSRFSGSGSGTDFTLTISSLQPEDFATYYCHHSWGIPMYTFGQGTKLEIKR ; MFI = 4.86
